Target: T1, AimR (Bacillus phage SPbeta, UniProt O64094 1-386)
T1 sequence: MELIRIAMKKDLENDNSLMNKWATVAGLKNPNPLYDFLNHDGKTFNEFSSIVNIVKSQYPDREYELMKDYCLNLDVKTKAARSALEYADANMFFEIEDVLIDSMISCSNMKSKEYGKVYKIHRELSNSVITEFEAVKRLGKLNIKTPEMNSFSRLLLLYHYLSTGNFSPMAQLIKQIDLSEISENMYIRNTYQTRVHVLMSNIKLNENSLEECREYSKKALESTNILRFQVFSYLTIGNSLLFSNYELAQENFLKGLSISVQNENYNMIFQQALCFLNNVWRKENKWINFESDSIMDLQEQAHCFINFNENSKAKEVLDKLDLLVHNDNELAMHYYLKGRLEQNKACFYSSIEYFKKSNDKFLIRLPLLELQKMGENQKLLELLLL
Test: EMSA; 5 mM Mg2+; EMSA: 25 mM Tris-HCl pH 8.0, 150 mM NaCl, 5 mM MgCl2, 5 mM DTT, 0.1 mg/ml BSA, 10% glycerol, 50 ug/ml salmon sperm DNA, 4 C, 15 min; smFRET: 20 mM phosphate pH
Conditions: protein: recombinant; tags: C-terminal 8xHis; chain copies: 2; label: FAM
endpoint: binding signal

binder	meas-value
C2T (dsDNA) DNA 1: ATTTAAATATTAGGTTTTAATAACATCTAGT DNA 2: ACTAGATGTTATTAAAACCTAATATTTAAAT	~42 fold lower binding than WT DNA
C2A (dsDNA) DNA 1: AATTAAATATTAGGTTTTAATAACATCTAGT DNA 2: ACTAGATGTTATTAAAACCTAATATTTAATT	~8 fold lower binding than WT DNA
A1T/T31'A (dsDNA) DNA 1: TCTTAAATATTAGGTTTTAATAACATCTAGT DNA 2: ACTAGATGTTATTAAAACCTAATATTTAAGA	~7 fold lower affinity than WT DNA
A1G/T31'C (dsDNA) DNA 1: GCTTAAATATTAGGTTTTAATAACATCTAGT DNA 2: ACTAGATGTTATTAAAACCTAATATTTAAGC	~19 fold lower affinity than WT DNA
C2G (dsDNA) DNA 1: AGTTAAATATTAGGTTTTAATAACATCTAGT DNA 2: ACTAGATGTTATTAAAACCTAATATTTAACT	~9 fold lower binding than WT DNA

Where do these numbers come from? They come from paper PMC6536502.
